Below, each entry is listed alongside its reported Control.
# Species on record: Rattus norvegicus
# Measurement Protocol: Activity to induce the elevation of alpha/beta cholesterol ratio in plasma lipids of male Wistar rats
# Type: functional
# Parameters: concentration or dose not given beside the values
Form entry: value (%) — number only.

Request: Give the reported value of Control for this record: CCCCCCCCCCCCCCOc1ccc(CC(P(=O)(OCC)OCC)P(=O)(OCC)OCC)cc1
Response: -28

Request: Give the reported value of Control for this record: CCOP(=O)(OCC)C(Cl)(CCCc1ccccc1)P(=O)(OCC)OCC
Response: -23

Request: Give the reported value of Control for this record: COP(=O)(OC)C(Cl)(CCCc1ccccc1)P(=O)(OC)OC
Response: -9

Request: Give the reported value of Control for this record: COP(=O)(OC)C(Cl)(Cc1ccc(Cl)cc1)P(=O)(OC)OC
Response: 81

Request: Give the reported value of Control for this record: CCCCCCCCCCCCCCOc1ccc(CC(P(=O)(OC)OC)P(=O)(OC)OC)cc1
Response: 14

Request: Give the reported value of Control for this record: CCCCCCCCCCCCCCCC(O)(P(=O)(OC)OC)P(=O)(OC)OC
Response: -38

###

# Species on record: Rattus norvegicus
# Measurement Protocol: Activity to induce the elevation of alpha/beta cholesterol ratio of male Wistar rats
# Format: functional
# Design: concentration or dose not given beside the values
Quick rule: Percent change in alpha/beta cholesterol ratio versus control of at least 20% means satisfied, below that means not satisfied.

Worked cases, answers included:
[
  {
    "Molecule": "O=P(O)(O)C(CCc1ccccc1)P(=O)(O)O",
    "Label": "not satisfied"
  },
  {
    "Molecule": "CCOP(=O)(OCC)OC(c1ccc(Cl)cc1)P(=O)(OCC)OCC (stereo not given)",
    "Label": "not satisfied"
  },
  {
    "Molecule": "COP(=O)(OC)C(Cc1ccc(Cl)cc1)P(=O)(OC)OC",
    "Label": "satisfied"
  },
  {
    "Molecule": "COP(=O)(OC)OC(C(C)(C)c1ccc(Cl)cc1)P(=O)(OC)OC (stereo not given)",
    "Label": "satisfied"
  },
  {
    "Molecule": "COP(=O)(OC)OC(c1ccc(C(=O)c2ccc(Cl)cc2)cc1)P(=O)(OC)OC (stereo not given)",
    "Label": "satisfied"
  }
]

Request: Reported Percent change in alpha/beta cholesterol ratio versus control at or above 20%? COP(=O)(OC)C(O)(c1ccc(Cl)cc1)P(=O)(OC)OC
Response: satisfied

Request: Reported Percent change in alpha/beta cholesterol ratio versus control at or above 20%? O=P(O)(O)C(Cc1ccccc1)P(=O)(O)O
Response: not satisfied

Request: Reported Percent change in alpha/beta cholesterol ratio versus control at or above 20%? COP(=O)(OC)C(O)(c1ccc(C(=O)c2ccc(Cl)cc2)cc1)P(=O)(OC)OC
Response: satisfied

Request: Reported Percent change in alpha/beta cholesterol ratio versus control at or above 20%? COP(=O)(OC)C(O)(c1ccc(F)cc1)P(=O)(OC)OC
Response: satisfied

Request: Reported Percent change in alpha/beta cholesterol ratio versus control at or above 20%? CCOP(=O)(OCC)C(CCOc1ccccc1)P(=O)(OCC)OCC
Response: satisfied

Request: Reported Percent change in alpha/beta cholesterol ratio versus control at or above 20%? CCOP(=O)(OCC)C(Cc1ccccc1)P(=O)(OCC)OCC
Response: satisfied

Request: Reported Percent change in alpha/beta cholesterol ratio versus control at or above 20%? CCOP(=O)(OCC)C(CCCc1ccccc1)P(=O)(OCC)OCC
Response: satisfied

Request: Reported Percent change in alpha/beta cholesterol ratio versus control at or above 20%? O=P(O)(O)C(CCCOc1ccccc1)P(=O)(O)O
Response: not satisfied
